- Test system: SK-MEL-5
- EXPERIMENTAL PROTOCOL: NCI tumour cell line growth inhibition, 48 h
Calls of active or inactive are those of the source. No stated cut-off is given here; in the data, active = GI50 up to about 1.1 µM and inactive = higher.
Form entry, call: pick from TRUE = active, FALSE = inactive

Fill in: this test's call for Cc1ccc(/C=N/NS(=O)(=O)c2ccccc2)c(C)c1 is ___
FALSE

GET /call?item= CCOc1cc(C2SCC(=O)N2c2nc3cc4sc(N5C(=O)CSC5c5ccc(O)c(OCC)c5)nc4cc3s2)ccc1O (stereo not given) returns the recorded outcome of this test.
FALSE

In this assay, the call recorded for Cc1c(CNc2ccc(C(=O)NC(CC(=O)O)C(=O)O)cc2)ccc2nc(N)nc(N)c12 (stereo not given) was what?
TRUE

GET /call?item= Cn1c(NNc2ccccc2)cc(=O)[nH]c1=O returns the recorded outcome of this test.
FALSE

Name the outcome recorded for N/C(=N\c1ccc(Cl)cc1)NS(=O)(=O)c1ccc(-c2ccccn2)s1 in the assay.
FALSE

For CCOC(=O)/C(=C\c1ccc[nH]1)C(=O)c1ccccc1 , what call appears in the results of this test?
FALSE

Identify the outcome logged in this assay for the compound shown: O=C1C[C@@]23CCC4(CC2CCC[C@H]3O1)OCCO4 (stereo not given in full)
FALSE

Answer briefly: the call reported for CC[C@@]12CCC(=S)N(CCSc3ccccc3)[C@@H]1c1c(n(S(=O)(=O)c3ccc(OC)cc3)c3ccccc13)CC2 in this assay.
FALSE

Recorded test outcome, item CC12c3ccccc3C(OC=O)(c3ccccc31)C1(C)c3ccccc3C2(OC=O)c2ccccc21
FALSE

Call for entry O=Nn1c2ccccc2c2ccccc21 :
FALSE

###

Give measured GI50 for each item. Keep answers brief.
- Tested on: HT-29
- EXPERIMENTAL PROTOCOL: NCI tumour cell line growth inhibition, 48 h
Active and inactive are the calls of the source. Rule as the data show it: active = GI50 up to about 1.1 µM and inactive = higher.

Param readout = GI50; param system = HT-29; param query = CCOC(=O)C1N(S(=O)(=O)c2ccc(C)cc2)CCC12C(c1ccc(OC)cc1)NC1CCCCC12 (stereo unspecified) ; response: value
> 100 µM (inactive)

# query: GI50 | item CC1=C(C#N)c2nc3ccccc3n2C(=O)C1(C)CCO (stereo unspecified) | system: HT-29
> 100 µM (inactive)

Lab note: need GI50 with HT-29 for entry Cc1cc(C)c2c(=O)n(CN3CC4Nc5ccccc5C4C3)sc2n1 (stereo unspecified) , please look it up.
21.3 µM (inactive)

Could you share what GI50 was measured for Nc1ncnc2c1ncn2C1C=C(CO)C(O)C1O (stereo unspecified) , tested on HT-29?
2.06 µM (inactive)

Record lookup: for HT-29, what GI50 belongs to O=C(ON=c1c2ccccc2ccc2ccccc12)c1cc([N+](=O)[O-])cc([N+](=O)[O-])c1 ?
94.4 µM (inactive)

Reported GI50 for HT-29, given CCOP(=O)(C/C=C/Cn1nc(Br)c(=O)[nH]c1=O)OCC ?
> 100 µM (inactive)

State its GI50 on HT-29: CC[C@@H]1CC[C@@H]2[C@H](CC[C@]3(C)[C@@H](OC(C)=O)CC[C@@H]23)[C@H]1COC(C)=O
18.2 µM (inactive)

Hi! What's the reported GI50 for CSc1nncc2[nH]c(C)nc12 on HT-29?
> 100 µM (inactive)

Notebook entry, HT-29 assay: GI50 of COC(=O)c1ccccc1C1CN=NC12Cc1c(C)c3c(c(C)c1C2=O)CCC3 (stereo unspecified) = ?
40.1 µM (inactive)

Under HT-29: GI50 value of CC(C)(C)c1cc(C(OCCl)(C(F)(F)F)C(F)(F)F)c2c(c1)C(C(F)(F)F)(C(F)(F)F)OC21c2ccccc2C(=O)c2ccccc21 ?
> 100 µM (inactive)

What value of GI50 on HT-29 does O=C(O)CCSC(=O)Nc1cccc(F)c1 have?
> 100 µM (inactive)

###

- Test system: UACC-257
- EXPERIMENTAL PROTOCOL: NCI tumour cell line growth inhibition, 48 h
Active and inactive are the calls of the source. No stated cut-off is given here; in the data, active = GI50 up to about 1.1 µM and inactive = higher.
Thanks in advance; please answer with one of these: active, inactive

Per the assay record, what outcome was assigned to CCOC(=O)C(Cl)(NC(=O)OCc1ccccc1)C(F)(F)F (stereo unspecified) ?
inactive

Outcome logged for O=C(O)CCS/C(=C\C(SCCC(=O)O)c1ccc(Cl)cc1)c1ccc(Cl)cc1 (stereo unspecified) in this assay:
inactive

What call does the record list for COc1cc(C2C(Cl)C(=O)N2NC(=O)c2ccc(NC(C)=O)cc2)cc(Br)c1O (stereo unspecified) ?
inactive

Record lookup: outcome of this test for CC(=O)c1ccc(OCC(O)CO)cc1 (stereo unspecified) ?
inactive

I'd appreciate the recorded outcome for O=C(Nc1cccc(O)c1)C(=O)C1C(=O)NC(=S)NC1=O from this test.
inactive

Dear all, I need the recorded test outcome for NC(CO)C(=O)NCC(=O)O (stereo unspecified) , thank you.
inactive

Assay outcome for NC(CCCCCP(=O)(c1ccccc1)C1C=CC=CC1)C(=O)O (stereo unspecified) : what was it?
inactive

Name the outcome recorded for COc1ccc(CC2(Cc3ccc(OC)cc3)CCOC2=O)cc1 in the assay.
inactive

Recorded call for [N-]=[N+]=N[C@H]1C[C@@H](CO)O[C@H]1n1cnc2c(N)ncnc21 ?
inactive

What did the test return for COc1cc(/C=C2/SC(c3ccccc3)N(c3ccc(NC(C)=O)cc3)C2=O)cc(OC)c1OC (stereo unspecified) ?
inactive

Name the outcome recorded for Cc1c(CNc2ccc(C(=O)NC(CC(=O)O)C(=O)O)cc2)ccc2nc(N)nc(N)c12 (stereo unspecified) in the assay.
active

What classification did NS(=O)(=O)c1nnc(NC(=S)NC(=O)Nc2ccc(Cl)c(Cl)c2)s1 end up with in this test?
inactive

Write down the call the test reported for this compound. Item: CC1=NN(C(=O)c2ccccc2O)C(=O)/C1=C/c1ccc([N+](=O)[O-])cc1
inactive

Hey, what did the test say about Cc1nc2cc(/N=N/c3c(C)noc3C)ccc2[nH]1 ?
inactive

I would be grateful if you could indicate the recorded call for CCC(C)NC1=C(NC(C)=O)C(=O)c2ccccc2C1=O (stereo unspecified) .
inactive

So what was the verdict on Cn1c2c(c3c(=O)[nH]ncc31)CCCc1ccccc1-2 in this test?
inactive

Dear colleague, could you share the recorded outcome for CCCC1NC(=O)C(CC(C)C)NC(=O)c2cccc(n2)C(=O)NC(CC(C)C)C(=O)NC(CCC)C(=O)NC(C(=O)OC)CCCCNC1=O (stereo unspecified) when you have a moment?
inactive

Call for entry COC(=O)CCCN(C)c1nc(N)n[nH]1 :
inactive

Each compound tested received a call. Report the one for CNC(=O)N(CCC#N)CCN(C(=O)NC)c1ccccc1 .
inactive

Lab log entry: O=[N+]([O-])C(=C/c1cccc2ccccc12)/C(=C\c1cccc2ccccc12)[N+](=O)[O-] — outcome as called in the assay?
inactive

Test call for this compound, please: O=C1O[C@H](c2ccc3c(c2)OCO3)[C@H]2CO[C@@H](c3ccc4c(c3)OCO4)[C@@H]12
inactive

###

Record form. Attribute: GI50. Fill in for each entry.
- Tested on: SNB-19
- EXPERIMENTAL PROTOCOL: NCI tumour cell line growth inhibition, 48 h
The source made the active and inactive calls. No stated cut-off is given here; in the data, active = GI50 up to about 1.1 µM and inactive = higher.

Please state recorded GI50 (tested on SNB-19) of C#CCNC(=O)ON1C(=O)CCC1=O
> 100 µM (inactive)

So what GI50 did COc1ccc(CC2(Cc3ccc(OC)cc3)CCOC2=O)cc1 get with SNB-19?
> 100 µM (inactive)

Under SNB-19: GI50 value of CCOC(=O)c1nc2ccc(C(F)(F)F)cc2nc1Oc1ccc(C(=O)OC)cc1 ?
46.8 µM (inactive)

SNB-19 / GI50 / Cc1ccccc1CN1CC2=C(CCN(Cc3ccccc3)C2=O)N2CCN=C12 : value?
6.79 µM (inactive)

Reported GI50 for SNB-19, given CC1=C(C(=O)NCc2ccccc2)C(c2ccc(N(C)C)cc2)C(C(=O)NCc2ccccc2)=C(C)N1 ?
> 100 µM (inactive)

Lab request: please report GI50 under test system SNB-19 for O=C(CC1(O)C(=O)Nc2ccccc21)c1ccc2ccccc2c1 (stereo not given)
> 100 µM (inactive)

Please state recorded GI50 (tested on SNB-19) of COC(=O)CNCC1OC2OC(C)(C)OC2C1N=[N+]=[N-] (stereo not given)
> 100 µM (inactive)

So what GI50 did CC(CC(C)[C@H]1CCC2[C@H]3C(CC[C@@]21C)[C@@]1(C)CCC(O)C[C@H]1C[C@@H]3O)C(=O)O (stereo not given in full) get with SNB-19?
> 100 µM (inactive)

Report GI50 for CC/C(=N\NC(=O)c1cccnc1)c1ccc2c(c1)OCCO2 tested on SNB-19.
> 100 µM (inactive)

Which measured GI50 belongs to CC1(C)OC2OC(C(=O)c3ccccc3)C3OC(C)(C)OC3C2O1 (stereo not given) , tested on SNB-19?
> 100 µM (inactive)

# value lookup — system SNB-19, readout GI50, item Sc1nnc(C(c2ccccc2)c2ccccc2)[nH]1
> 100 µM (inactive)

What GI50 appears in the records for this compound with SNB-19? CCOC(=O)NC(=O)c1cn(CCN2CCN(c3ncnc4[nH]cnc34)CC2)c(=O)[nH]c1=O
> 100 µM (inactive)

// fetch SNB-19 GI50 for Nc1ccc(N)c2c1C(=O)c1ccccc1C2=O
> 100 µM (inactive)

Please tell me: GI50 of O=C(NN=C(c1ccccc1)c1ccccc1)/C(O)=C/C(=O)c1ccc(Cl)cc1 , system SNB-19?
38.3 µM (inactive)

# value lookup — system SNB-19, readout GI50, item Cc1cc(C)c2c(=O)n(CN3CC4Nc5ccccc5C4C3)sc2n1 (stereo not given)
65.9 µM (inactive)
